- Run Description: modulation of C. elegans fzo-1 (AID 1259413);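 further: fzo-1 mutant C. elegans worms in liquid wells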
- Condition: C. elegans fzo-1 modulator screen, mean read-out; stronger effect = higher value
Experimental Endpoint: mean signal
Keep the answer to the number alone.

# count of solved cases: 3
Molecule: Clc1ccc(COC(Cn2ccnc2)c2ccc(Cl)cc2Cl)c(Cl)c1 (centres undefined)
mean signal: 182
//
Molecule: NCCc1ccccn1
mean signal: 245
//
Molecule: CCOC(=O)C1(c2ccccc2)CCN(CCC(C#N)(c2ccccc2)c2ccccc2)CC1
mean signal: 215

The molecule Cc1ncc2n1-c1ccc(Cl)cc1C(c1ccccc1F)=NC2 showed mean signal equal to 220

The molecule FC(F)(F)c1cccc(N2CCNCC2)c1 showed mean signal equal to 282

The molecule CCCCC/C=C\C/C=C\C/C=C\C/C=C\CCCC(=O)Nc1ccc(O)cc1 showed mean signal equal to 245

The molecule COc1cc(N)c(Cl)cc1C(=O)NC1CN2CCC1CC2 (centres undefined) showed mean signal equal to 253

====

- Tested on: Aerobactin synthetase IucA (Klebsiella pneumoniae, hypervirulent)
- Run Description: IucA enzyme inhibition, biochemical, LOPAC library, absorbance readout (AID 1346212);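 further: 100% = no compound wells and 0% = no enzyme wells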
- Condition: IucA enzyme assay, absorbance (OD) readout; stronger effect = lower value; concentration not given here
Calls of active or inactive are those of the source. No rule for the calls is given here.
The following compounds are shown together with reported remaining activity values.

# count of solved cases: 4
Compound: O=[N+]([O-])c1ccc(-c2nc(-c3ccc(F)cc3)c(-c3ccncc3)[nH]2)cc1
remaining activity: 95.7% (inactive)

Compound: CC(C)NCC(O)COc1ccc(CCOCC2CC2)cc1 (stereo not given)
remaining activity: 123% (inactive)

Compound: O=C1N=c2cc(Cl)c(Cl)cc2=NC1=O
remaining activity: 110% (inactive)

Compound: Nc1c(C(=O)Nc2nnc(-c3ccccc3)s2)sc2nc3c(cc12)CCCCC3
remaining activity: 109% (inactive)

As a next step, examine the compound that follows.
The compound COC(=O)C1=C(C)NC(C)=C(C(=O)OCCN(C)Cc2ccccc2)C1c1cccc([N+](=O)[O-])c1 (stereo not given) showed remaining activity equal to 109% (inactive)

====

- Run Description: sensitizers of A549 cells to miR-34 induction, primary screen, imaging, A549 dox-inducible miR-34, nuclei and caspase counts (AID 1347080)
- Condition: A549 miR-34 inducible, Hoechst nuclei count, 48 h; stronger effect = lower value; cell number ratio, induced over uninduced
The following compounds are shown together with reported fold change values.
Keep the answer to the number alone.

Compound: COc1ccc(S(=O)(=O)N(CCO)c2ccccc2CN(C)C/C=C/c2ccc(Cl)cc2)cc1
Readout Number: 1.03
//
Compound: COc1ccc2[nH]cc(C3=CCNCC3)c2c1
Readout Number: 0.928
//
Compound: Cc1[nH]c2ccc(Cl)cc2c1C1=CCNCC1
Readout Number: 0.919
//
Compound: COCC1OC(=O)c2coc3c2[C@@]1(C)C1=C(C3=O)[C@@H]2CCC(=O)[C@@]2(C)CC1OC(C)=O (stereo not given in full)
Readout Number: 0.933

The compound Cc1ccc2c(c1)Cc1c(C(=O)NN3CCCCC3)nn(-c3ccc(Cl)cc3Cl)c1-2 showed fold change equal to 0.912

====

- Run Description: Cy5 fluorescence quenching or enhancement artefacts, artefact control for HCV NS3 helicase inhibitor project, biochemical, LOPAC1280 (AID 687037)
- Condition: Cy5-DNA-NS3h complex fluorescence interference counterscreen
Activity calls are given as the source filed them. The rule behind the calls is not given here.
Experimental Endpoint: fluorescence ratio (interference)

# count of solved cases: 10
Molecule: CC(C)(C)NCC(O)c1ccccc1Cl (stereo not given)
Experimental Endpoint: fluorescence ratio (interference)
Result: 1 (inactive)

Molecule: NC(=O)CN1CC(O)CC1=O (stereo not given)
Experimental Endpoint: fluorescence ratio (interference)
Result: 1 (inactive)

Molecule: CCCN1CCC[C@@H](c2cccc(O)c2)C1
Experimental Endpoint: fluorescence ratio (interference)
Result: 1 (inactive)

Molecule: C[N+](C)(C)CCOC(=O)CBr
Experimental Endpoint: fluorescence ratio (interference)
Result: 1 (inactive)

Molecule: CC(N)c1cccc(Cl)c1Cl (stereo not given)
Experimental Endpoint: fluorescence ratio (interference)
Result: 1 (inactive)

Molecule: CC(N)Cc1c[nH]c2ccc(OCc3cccs3)cc12 (stereo not given)
Experimental Endpoint: fluorescence ratio (interference)
Result: 0.9 (inactive)

Molecule: C[C@@H]1O[C@H](C[N+](C)(C)C)C[C@H]1O
Experimental Endpoint: fluorescence ratio (interference)
Result: 1 (inactive)

Molecule: N#CC(=Cc1ccc(O)c(O)c1)C(N)=S
Experimental Endpoint: fluorescence ratio (interference)
Result: 0.9 (inactive)

Molecule: NCCc1c[nH]c2ccc(O)cc12
Experimental Endpoint: fluorescence ratio (interference)
Result: 1 (inactive)

Molecule: NC(Cc1cc(O)c(O)cc1O)C(=O)O (stereo not given)
Experimental Endpoint: fluorescence ratio (interference)
Result: 0.9 (inactive)

The molecule C[C@H](N)Cc1cccc(C(F)(F)F)c1 showed fluorescence ratio (interference) equal to 1 (inactive)

The molecule Cc1nccc2c1[nH]c1ccccc12 showed fluorescence ratio (interference) equal to 1 (inactive)

The molecule CC[C@@H](CO)NC(=O)[C@@H]1C=C2c3cccc4[nH]cc(c34)C[C@H]2N(C)C1 showed fluorescence ratio (interference) equal to 1 (inactive)

The molecule NC(C(=O)O)c1cc(=O)[nH]o1 (stereo not given) showed fluorescence ratio (interference) equal to 0.9 (inactive)

The molecule O=[N+]([O-])c1cc(O)c(O)c([N+](=O)[O-])c1 showed fluorescence ratio (interference) equal to 1 (inactive)

Source listed as PubChem BioAssay.
